Biological target: T1, human IL2Rγ (endogenously expressed on cells) (human, UniProt P31785 23-369)
T1 sequence (looked up): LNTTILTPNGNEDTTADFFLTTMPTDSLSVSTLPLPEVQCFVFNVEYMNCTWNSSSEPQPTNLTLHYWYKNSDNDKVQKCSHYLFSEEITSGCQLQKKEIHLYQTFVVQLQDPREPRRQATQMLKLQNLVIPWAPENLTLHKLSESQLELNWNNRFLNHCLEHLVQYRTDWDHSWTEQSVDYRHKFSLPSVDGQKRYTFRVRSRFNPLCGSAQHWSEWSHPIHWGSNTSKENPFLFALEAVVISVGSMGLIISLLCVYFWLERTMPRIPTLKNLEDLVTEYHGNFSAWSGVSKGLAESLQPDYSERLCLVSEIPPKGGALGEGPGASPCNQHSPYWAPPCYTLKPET
Experiment: cell-based or functional assay
measurement-name: IC50; IL-4 250 pM; Ramos.2G6.4C10/STAT3-luc (M)
Return type: number; implicit unit M.

Any idea what IC50; IL-4 250 pM; Ramos.2G6.4C10/STAT3-luc was measured for H4H12889P (antibody, human IgG4 S228P, kappa, V domains shown, human IgG4; also called REGN7257) VH: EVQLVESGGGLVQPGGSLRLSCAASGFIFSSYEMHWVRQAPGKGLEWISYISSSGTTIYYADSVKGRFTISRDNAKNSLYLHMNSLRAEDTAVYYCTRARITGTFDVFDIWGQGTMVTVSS VL: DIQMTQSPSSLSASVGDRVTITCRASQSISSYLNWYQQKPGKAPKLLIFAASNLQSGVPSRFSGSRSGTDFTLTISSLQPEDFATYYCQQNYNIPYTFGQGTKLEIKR ?
1.9e-09
